Target: rat or human mGluR2 receptor (UniProt Q14416)
Experiment: calcium ion (Ca2+) mobilization assay for allosteric modulators of mGluR2
Conditions: potency at approx. EC10 for glutamate; rat or human receptor not given; read-out: mGluR2 Potentiation (EC50)
Quantity Measured: EC50 (nM)

# Chemical String, Quantity Measured, Unit Descriptor, Endpoint Result
records = [
    ("CCc1cn2c(nc1=O)O[C@H](COc1ccc3c(c1)CCCC3(C)C)C2", "EC50", "nM", 17),
    ("CC1(C)CCCCc2cc(OC[C@@H]3Cn4ccc(=O)nc4O3)ccc21", "EC50", "nM", 11),
    ("O=c1ccn2c(n1)O[C@H](COc1ccc3c(c1)CCCC3)C2", "EC50", "nM", 224),
    ("CC1(C)CCC(C)(C)c2cc(OC[C@@H]3Cn4ccc(=O)nc4O3)ccc21", "EC50", "nM", 15),
    ("CC1(C)CCCc2cc(OC[C@@H]3Cn4ccc(=O)nc4O3)ccc21", "EC50", "nM", 19),
    ("O=c1ccn2c(n1)O[C@H](COc1ccc3c(c1)CCC3)C2", "EC50", "nM", 445),
    ("CCC(F)(F)c1cc(=O)nc2n1C[C@@H](COc1ccc3c(c1)CCCC3(C)C)O2", "EC50", "nM", 15),
    ("CC1(C)CCc2cc(OC[C@H]3Cn4ccc(=O)nc4O3)ccc21", "EC50", "nM", 9100),
    ("CCc1cn2c(nc1=O)O[C@H](COc1ccc3c(c1)CCC3(C)C)C2", "EC50", "nM", 20),
    ("CCC(F)(F)c1cc(=O)nc2n1C[C@@H](COc1ccc3c(c1)CCC3(C)C)O2", "EC50", "nM", 64),
    ("CC1(C)CCc2cc(OC[C@@H]3Cn4ccc(=O)nc4O3)ccc21", "EC50", "nM", 29),
]
